Reported normalized growth by item:
assay_comment: chemical genetic growth profiling, strain panel (AID 1159580);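 note: tested at 20 µM; growth read once vehicle control cultures reached saturation at 30 °C; 1 = growth at the plate median or of vehicle wells; lower values mean less growth of the strain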
condition_description: S. cerevisiae deletion strains, growth OD, locus YML124C, strain tub3, hits give low values
Out of some 5,500 compounds screened, about 2,000 (36%) were called active. Inconclusive results (about 18%) are left out. The list shows a part of the results.
measurement_label: normalized growth

>>> recorded_result("CCOC(=O)C1C(C=C(C)C)C1(C)C (stereo not drawn)")
"1 (inactive)"
>>> recorded_result("CC(=O)Oc1cc(-c2coc3cc(OC(C)=O)c(OC(C)=O)c(OC(C)=O)c3c2=O)cc(OC(C)=O)c1OC(C)=O")
"1 (inactive)"
>>> recorded_result("CCCN1C[C@H](CSC)C[C@@H]2c3cccc4[nH]cc(c34)C[C@H]21")
"1.02 (inactive)"

* * *

The following compounds are shown together with reported normalized growth values.
assay_comment: chemical genetic growth profiling, strain panel (AID 1159580)
condition_description: S. cerevisiae deletion strains, growth OD, locus YNL183C, strain NPR1, hits give low values
Screen size: about 5,500 compounds; about 2,000 (36%) were called active. Roughly 18% stayed inconclusive and do not appear here. Some of the results follow.
measurement_label: normalized growth

>>> recorded_result("O=C1CCc2ccc(OCCCCN3CCN(c4cccc(Cl)c4Cl)CC3)cc2N1")
0.894
>>> recorded_result("CC(=O)C1CCC2C3CC=C4CC(OS(=O)(=O)O)CC[C@]4(C)C3CC[C@]12C (stereo partly drawn)")
0.902
>>> recorded_result("CCC(/C=C/[C@@H](C)[C@H]1CCC2C3CC=C4C[C@@H](O)CC[C@]4(C)C3CC[C@@]21C)C(C)C (stereo partly drawn)")
0.904

* * *

assay_comment: chemical genetic growth profiling, strain panel (AID 1159580)
condition_description: S. cerevisiae deletion strains, growth OD, locus YNL307C, strain MCK1 (second series), hits give low values
Screen size: about 5,500 compounds; about 2,000 (36%) were called active. Another 18% or so got no clear call; they are omitted. This is one part of the list.
measurement_label: normalized growth

>>> recorded_result("O=C1c2ccccc2O[C@@H](c2ccccc2)[C@@H]1NC1CCCCC1")
0.904
>>> recorded_result("O=C(CSCc1nc(-c2ccc(Cl)cc2)cs1)N/N=C\\c1cccs1")
0.956
>>> recorded_result("CCC(C)COC(=O)/C=C/c1ccc(N=Cc2ccc(OC)cc2)cc1 (centres undefined)")
0.783
>>> recorded_result("Cc1ccc(C(O)(c2ccccc2)c2ccccc2)c2ccccc12")
0.904

* * *

Reported values of normalized growth for individual entries
assay_comment: chemical genetic growth profiling, strain panel (AID 1159580)
condition_description: S. cerevisiae deletion strains, growth OD, locus YNL175C, strain NOP13, hits give low values
About 2,000 (36%) of roughly 5,500 compounds were called active. Not shown: some 18% with an inconclusive outcome. Some of the results follow.
measurement_label: normalized growth

>>> recorded_result("CCNC(=O)[C@H]1O[C@@H](n2cnc3c(N)nc(NCCc4ccc(CCC(=O)O)cc4)nc32)C(O)[C@H]1O (stereo partly drawn)")
"0.98 (inactive)"
>>> recorded_result("[N-]=[N+]=Nc1ccc(C(=O)CSC[C@H](NC(=O)CC[C@H](N)C(=O)O)C(=O)NCC(=O)O)cc1")
"1.01 (inactive)"
>>> recorded_result("C[N+]1(CCCCC[N+]2(C)CCCC2)CCCC1")
"0.993 (inactive)"

* * *

assay_comment: chemical genetic growth profiling, strain panel (AID 1159580)
condition_description: S. cerevisiae deletion strains, growth OD, locus YOR270C, strain vph1, hits give low values
The whole screen tested about 5,500 compounds, of which about 2,000 (36%) were called active. Not shown: some 18% with an inconclusive outcome. The list shows a part of the results.
Recorded normalized growth, one value per entry.
measurement_label: normalized growth

>>> recorded_result("NC(=O)CC[C@@H](N)C(=O)O")
1.1
>>> recorded_result("CC(=O)[C@H]1CCC2C3CC=C4C[C@@H](OC(=O)CCC(=O)O)CC[C@]4(C)C3CC[C@@]21C (stereo partly specified)")
0.91
>>> recorded_result("CN(C)CCC=C1c2ccccc2CCc2ccccc21")
0.87
>>> recorded_result("CC1=C2C(=CO[C@H](C)[C@H]2C)C(=O)C(C(=O)O)=C1O")
1
>>> recorded_result("CCC(/C=C/[C@@H](C)[C@H]1CCC2C3CC=C4C[C@@H](O)CC[C@]4(C)C3CC[C@@]21C)C(C)C (stereo partly specified)")
0.909
>>> recorded_result("CCOC(=O)C1C(C=C(C)C)C1(C)C (stereo unspecified)")
1.03
>>> recorded_result("C=CCc1ccccc1OCC(O)CNC(C)C (stereo unspecified)")
1.07
>>> recorded_result("CC(=O)N(O)CCCCCNC(=O)CCC(=O)N(O)CCCCCNC(=O)CCC(=O)N(O)CCCCCN")
0.964
>>> recorded_result("CN(C)CC/C=C1/c2ccccc2COc2ccccc21")
1.02
>>> recorded_result("CC[C@]12C=CCN3CC[C@@]4(c5ccc(OC)cc5N(C)C4[C@@](O)(C(=O)OC)[C@@H]1OC(C)=O)[C@@H]32 (stereo partly specified)")
0.934
>>> recorded_result("ClC(Cl)=C(c1ccc(Cl)cc1)c1ccc(Cl)cc1")
0.978
>>> recorded_result("NCCc1ccc(O)c(O)c1")
1.06
>>> recorded_result("O=C1CN2Cc3c(ccc(Cl)c3Cl)N=C2N1")
0.957
>>> recorded_result("S=c1ccss1")
0.423
>>> recorded_result("CC(=O)Oc1cc(-c2coc3cc(OC(C)=O)c(OC(C)=O)c(OC(C)=O)c3c2=O)cc(OC(C)=O)c1OC(C)=O")
0.564
>>> recorded_result("COc1cc([C@@H]2c3cc4c(cc3[C@H](O)[C@H]3COC(=O)[C@@H]23)OCO4)cc(OC)c1OC")
1.03
>>> recorded_result("CN(C)CCC=C1c2ccccc2C=Cc2ccccc21")
0.809
>>> recorded_result("C=CCCCCCCCCCCCC(O)CC(O)CO (stereo unspecified)")
1.01
>>> recorded_result("NCCc1ccc(O)cc1")
0.964
>>> recorded_result("CC(=O)O.CC(=O)O.[Cd]")
0.405
>>> recorded_result("OC1C(O)C(O)C(O)C(O)C1O (stereo unspecified)")
1

* * *

assay_comment: chemical genetic growth profiling, strain panel (AID 1159580)
condition_description: S. cerevisiae deletion strains, growth OD, locus YDR335W, strain msn5, hits give low values
The whole screen tested about 5,500 compounds, of which about 2,000 (36%) were called active. About 18% were inconclusive and are not listed. This is one part of the list.
Measured normalized growth, listed per entry.
measurement_label: normalized growth

>>> recorded_result("O=c1c2ccccc2[se]n1-c1ccccc1")
0.574
>>> recorded_result("O=C1CCc2cc(OCCCCc3nnnn3C3CCCCC3)ccc2N1")
0.981
>>> recorded_result("CC(C)c1ccc2c(c1O)CC[C@H]1C3=C(CC[C@]21C)C(=O)OC3")
0.973

* * *

assay_comment: chemical genetic growth profiling, strain panel (AID 1159580);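 note: tested at 20 µM; growth read once vehicle control cultures reached saturation at 30 °C; 1 = growth at the plate median or of vehicle wells; lower values mean less growth of the strain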
condition_description: S. cerevisiae deletion strains, growth OD, locus YLR384C, strain iki3, hits give low values
In all, about 5,500 compounds went through this assay and about 2,000 (36%) were called active. Another 18% or so got no clear call; they are omitted. This is one part of the list.
measurement_label: normalized growth

>>> recorded_result("CCC(/C=C/[C@@H](C)[C@H]1CCC2C3CC=C4C[C@@H](O)CC[C@]4(C)C3CC[C@@]21C)C(C)C (stereo partly drawn)")
0.982
>>> recorded_result("O=c1c(-c2cc(O)c(O)c(O)c2)coc2cc(O)c(O)c(O)c12")
1
>>> recorded_result("CN(N=O)C(=O)N[C@@H]1[C@@H](O)[C@H](O)[C@@H](CO)O[C@@H]1O")
0.986

* * *

assay_comment: chemical genetic growth profiling, strain panel (AID 1159580);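 note: tested at 20 µM; growth read once vehicle control cultures reached saturation at 30 °C; 1 = growth at the plate median or of vehicle wells; lower values mean less growth of the strain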
condition_description: S. cerevisiae deletion strains, growth OD, locus YLR113W, strain HOG1
The campaign covered roughly 5,500 compounds. About 2,000 (36%) were called active. Not shown: some 18% with an inconclusive outcome. No stated cut-off is given here; in the data, active means normalized growth mostly below about 0.91 (no sharp cut-off); inconclusive means no clear call, values can overlap the other calls; inactive means mostly above about 0.92. Some of the results follow.
Outcome codes: 1 (yes) = active, 0 (no) = inactive

>>> class_label("C#Cc1cccc(N=Cc2cc(Cl)cc(Br)c2O)c1")
"1 (yes)"
>>> class_label("O=c1c2ccccc2[se]n1-c1ccccc1")
"1 (yes)"
>>> class_label("COc1c(O)cccc1O")
"0 (no)"

* * *

assay_comment: chemical genetic growth profiling, strain panel (AID 1159580);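 note: tested at 20 µM; growth read once vehicle control cultures reached saturation at 30 °C; 1 = growth at the plate median or of vehicle wells; lower values mean less growth of the strain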
condition_description: S. cerevisiae deletion strains, growth OD, strain wtn01, hits give low values
The campaign covered roughly 5,500 compounds. About 2,000 (36%) were called active. Inconclusive results (about 18%) are left out. Some of the results follow.
measurement_label: normalized growth

>>> recorded_result("COCCOC(=O)C1=C(C)NC(C)=C(C(=O)OC(C)C)C1c1cccc([N+](=O)[O-])c1 (stereo not drawn)")
1
>>> recorded_result("CC(C)[C@]12O[C@H]1[C@@H]1O[C@@]13[C@@]1(C)CCC4=C(COC4=O)[C@@H]1C[C@@H]1O[C@@]13C2=O")
1.02
>>> recorded_result("CCN(CCCCOC(=O)c1ccc(OC)c(OC)c1)C(C)Cc1ccc(OC)cc1 (stereo not drawn)")
1.01
>>> recorded_result("COC(=O)C1=C(C)NC(C)=C(C(=O)OCCN(C)Cc2ccccc2)C1c1cccc([N+](=O)[O-])c1 (stereo not drawn)")
0.981
>>> recorded_result("COc1cc([C@@H]2c3cc4c(cc3[C@H](OC(C)=O)[C@H]3COC(=O)[C@H]23)OCO4)cc(OC)c1OC")
1
>>> recorded_result("O=c1c(-c2ccc(O)cc2)coc2cc(O)cc(O)c12")
1.02
>>> recorded_result("Nc1ccc(C(=O)O)c(O)c1")
0.984
>>> recorded_result("CCCCC1C(=O)N(c2ccccc2)N(c2ccccc2)C1=O")
1.02
>>> recorded_result("COc1ccc(-c2cc(=O)c3c(OC)cccc3o2)cc1")
1.01
>>> recorded_result("CCC(/C=C/[C@@H](C)[C@H]1CCC2C3CC=C4C[C@@H](O)CC[C@]4(C)C3CC[C@@]21C)C(C)C (stereo partly drawn)")
0.996
>>> recorded_result("C=C1C(N)CC2CC1C2(C)C (stereo not drawn)")
0.986
>>> recorded_result("COC(=O)C[C@H]1C(C)(C)C(=O)[C@@H]2CC3=C4CC(OC)O[C@@H](c5ccoc5)[C@]4(C)CCC3[C@@]1(C)C2=O (stereo partly drawn)")
1.01
>>> recorded_result("CC(C)c1ccc2c(c1O)CC[C@H]1C3=C(CC[C@]21C)C(=O)OC3")
0.965
>>> recorded_result("NCCc1cccc(O)c1")
0.987
>>> recorded_result("CN(N=O)C(=O)N[C@@H]1[C@@H](O)[C@H](O)[C@@H](CO)O[C@@H]1O")
1
>>> recorded_result("CC(=O)[C@H]1CCC2C3CC=C4C[C@@H](O)CC[C@]4(C)C3CC[C@@]21C (stereo partly drawn)")
0.948
>>> recorded_result("O=c1c(-c2cc(O)c(O)c(O)c2)coc2cc(O)c(O)c(O)c12")
0.934
>>> recorded_result("Nc1ccc(C(=O)O)c(O)c1 (tested in a mixture with another compound)")
1.01
>>> recorded_result("CN1CCc2c(c3ccccc3n2Cc2ccccc2)C1")
0.975
>>> recorded_result("COc1cccc(-c2cc(=O)c3cc(OC)ccc3o2)c1")
1.09
>>> recorded_result("CC(=O)Oc1cc(-c2coc3cc(OC(C)=O)c(OC(C)=O)c(OC(C)=O)c3c2=O)cc(OC(C)=O)c1OC(C)=O")
0.882
>>> recorded_result("CCOC(=O)C1C(C=C(C)C)C1(C)C (stereo not drawn)")
1.02
>>> recorded_result("CCC1C2CC3C4N(C)c5ccccc5C45CC(C2C5OC(C)=O)N3C1OC(C)=O (stereo not drawn)")
1.04
>>> recorded_result("COc1c(O)cccc1O")
1.04
>>> recorded_result("C=CCCCCCCCCCCCC(O)CC(O)CO (stereo not drawn)")
0.904
>>> recorded_result("COc1c(O)cc2c(-c3ccccc3)cc(=O)oc2c1OC")
0.991
>>> recorded_result("COc1ccc(-c2cc(=O)c3c(OC(C)=O)cc(OC(C)=O)cc3o2)cc1")
0.987
>>> recorded_result("CN1CCOC(c2ccccc2)c2ccccc2C1 (stereo not drawn)")
1.02

The measurements presented in this section are drawn from PubChem BioAssay AID1159580.
